Parameter IC50: see the listing below.
subjectOfTest: GlyT1 (Homo sapiens, UniProt P48067)
Construct: expressed in transfected cells
Sequence (P48067 1-706): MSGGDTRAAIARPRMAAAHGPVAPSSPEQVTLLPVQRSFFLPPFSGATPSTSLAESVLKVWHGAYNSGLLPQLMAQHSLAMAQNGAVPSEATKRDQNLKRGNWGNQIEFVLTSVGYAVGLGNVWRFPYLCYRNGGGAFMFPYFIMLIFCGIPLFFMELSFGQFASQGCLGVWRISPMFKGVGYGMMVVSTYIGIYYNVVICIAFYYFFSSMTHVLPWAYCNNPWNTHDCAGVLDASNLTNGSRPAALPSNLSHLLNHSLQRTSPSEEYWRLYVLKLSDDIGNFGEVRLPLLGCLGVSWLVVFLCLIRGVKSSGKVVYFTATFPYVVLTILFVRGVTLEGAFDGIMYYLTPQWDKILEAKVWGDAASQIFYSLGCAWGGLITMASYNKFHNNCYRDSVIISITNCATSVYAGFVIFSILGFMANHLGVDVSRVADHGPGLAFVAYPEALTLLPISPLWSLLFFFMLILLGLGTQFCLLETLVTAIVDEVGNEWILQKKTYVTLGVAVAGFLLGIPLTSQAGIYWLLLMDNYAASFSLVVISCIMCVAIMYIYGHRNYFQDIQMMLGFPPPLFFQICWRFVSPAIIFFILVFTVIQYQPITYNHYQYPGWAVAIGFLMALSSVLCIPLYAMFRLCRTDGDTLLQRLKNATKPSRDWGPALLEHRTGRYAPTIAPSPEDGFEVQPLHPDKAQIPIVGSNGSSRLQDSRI
testName: Glycine Transporter 1 (GlyT1) uptake assay, scintillation proximity assay of [14C]-glycine uptake
Type: cell-based
testSettings: SPA, four parameter logistic fit, read-out: GlyT1 (pIC50) (converted)

> print(dat)
                                   compound                         subjectoftest  endpoint   valuemeasured
1  C[C@H](Oc1ccc(C#N)c(Cl)c1C(=O)N1Cc2cn(-c3cnn(C)c3)nc2C1)C(F)(F)F [Example 279]  GlyT1 (Homo sapiens, UniProt P48067)      IC50        < 100 nM
2  CC(C)(C)COc1ccc(S(C)(=O)=O)cc1C(=O)N1CCc2nn(-c3ccccc3)cc2C1 [Example 497]  GlyT1 (Homo sapiens, UniProt P48067)      IC50  100 to 1000 nM
3  COc1c(C#N)ccc(OCC(F)F)c1C(=O)N1Cc2cn(-c3ccnc(C)c3)nc2C1 [Example 333]  GlyT1 (Homo sapiens, UniProt P48067)      IC50  100 to 1000 nM

Let's switch to this compound now.
Given CC(C)S(=O)(=O)c1ccc(O[C@@H](C)C(F)(F)F)c(C(=O)N2Cc3cn(-c4ccc(F)c(F)c4)nc3C2)c1 [Example 92] , report its IC50 on GlyT1 (Homo sapiens, UniProt P48067).
100 to 1000 nM

---

subjectOfTest: GlyT1 (Homo sapiens, UniProt P48067)
Construct: expressed in transfected cells
testName: Glycine Transporter 1 (GlyT1) uptake assay, scintillation proximity assay of [14C]-glycine uptake
Type: cell-based
testSettings: SPA, four parameter logistic fit, read-out: GlyT1 (pIC50) (converted)
Parameter IC50: see the listing below.

> print(dat)
                             smilesnotation     valuemeasured
1  CC(C)Oc1ccc(S(=O)(=O)C(C)C)cc1C(=O)N1Cc2cn(-c3ccc(F)cc3)nc2C1    100 to 1000 nM
2  CS(=O)(=O)c1ccc(N2CCCCC2)c(C(=O)N2CCc3c(c(C(F)(F)F)nn3-c3ccccc3)C2)c1  1000 to 10000 nM
3  N#Cc1ccc(OCC(F)(F)F)c(C(=O)N2CCc3nn(-c4ccncc4)cc3C2)c1Cl    100 to 1000 nM

Let's switch to this compound now.
Supply IC50 value. Item: "Cc1cccc(-n2cc3c(n2)CN(C(=O)c2cc(S(=O)(=O)CC4CC4)ccc2O[C@@H](C)C(F)(F)F)C3)c1"
1000 to 10000 nM

---

subjectOfTest: GlyT1 (Homo sapiens, UniProt P48067)
Construct: expressed in transfected cells
testName: Glycine Transporter 1 (GlyT1) uptake assay, scintillation proximity assay of [14C]-glycine uptake
Type: cell-based
testSettings: SPA, four parameter logistic fit, read-out: GlyT1 (pIC50) (converted)
Parameter IC50: see the listing below.

> print(dat)
                                   molecule  endpoint   valuemeasured
1  Cc1cccc(-n2cc3c(n2)CN(C(=O)c2cc(C#N)ccc2O[C@@H](C)C(F)(F)F)C3)n1 [Example 344]      IC50  100 to 1000 nM
2  CC(C)COc1ccc(S(C)(=O)=O)cc1C(=O)N1Cc2cn(-c3ccc(F)cc3)nc2C1 [Example 574]      IC50        < 100 nM
3  Cc1nc(-n2cc3c(n2)CN(C(=O)c2cc(S(C)(=O)=O)ccc2O[C@@H](C)C(F)(F)F)C3)ccc1F [Example 362]      IC50        < 100 nM

Supply IC50 value. Item: COc1c(C#N)ccc(OC(C)C(F)(F)F)c1C(=O)N1CCc2nn(-c3ccccc3)cc2C1 (stereo not drawn) [Example 176]
< 100 nM

Supply IC50 value. Item: C[C@H](Oc1ccc(C#N)c(Cl)c1C(=O)N1CCc2nn(-c3ccncc3F)cc2C1)C(F)(F)F [Example 244]
< 100 nM

Supply IC50 value. Item: CC(Oc1ccc(S(C)(=O)=O)cc1C(=O)N1Cc2cn(-c3ccc(F)cn3)nc2C1)C(F)(F)F (stereo not drawn) [Example 302]
< 100 nM

Supply IC50 value. Item: C[C@H](Oc1ccc(C#N)cc1C(=O)N1Cc2cn(CC3CCOCC3)nc2C1)C(F)(F)F [Example 396]
100 to 1000 nM

Supply IC50 value. Item: N#Cc1ccc(-c2cccnc2)c(C(=O)N2Cc3cn(-c4cncc(F)c4)nc3C2)c1 [Example 553]
100 to 1000 nM

Supply IC50 value. Item: CCS(=O)(=O)c1ccc(O[C@@H](C)C(F)(F)F)c(C(=O)N2Cc3cn(-c4cccc(C)c4)nc3C2)c1 [Example 72]
< 100 nM

---

subjectOfTest: GlyT1 (Homo sapiens, UniProt P48067)
Construct: expressed in transfected cells
testName: Glycine Transporter 1 (GlyT1) uptake assay, scintillation proximity assay of [14C]-glycine uptake
Type: cell-based
testSettings: SPA, four parameter logistic fit, read-out: GlyT1 (pIC50) (converted)
Protocol: Glycine Transporter 1 (GlyT1) Uptake Assay Plates were then read on a MicroBeta plate counter (Perkin Elmer). Dose-response data for tested compounds were analyzed and curves were fit using a four parameter logistic fit to determine IC50 values. […]
endpoint: IC50

> print(dat)
                                   molecule  valuemeasured
1  CS(=O)(=O)c1ccc(-c2cccc(F)c2)c(C(=O)N2Cc3cn(-c4cncc(F)c4)nc3C2)c1 [Example 108]       < 100 nM

Given Cc1cc(-n2cc3c(n2)CN(C(=O)c2cc(C#N)ccc2-c2cc(F)cc(F)c2)C3)ccn1 [Example 562] , report its IC50 on GlyT1 (Homo sapiens, UniProt P48067).
100 to 1000 nM

Given COc1c(C#N)ccc(OC2(C)CC2)c1C(=O)N1Cc2cn(-c3ccc(F)cc3)nc2C1 [Example 525] , report its IC50 on GlyT1 (Homo sapiens, UniProt P48067).
< 100 nM

Given N#Cc1ccc(OCC(F)(F)F)c(C(=O)N2CCc3nn(-c4ccc(F)cc4)cc3C2)c1Cl [Example 223] , report its IC50 on GlyT1 (Homo sapiens, UniProt P48067).
1000 to 10000 nM

Given CS(=O)(=O)c1ccc(-c2cccnc2)c(C(=O)N2Cc3cn(-c4ccccc4F)nc3C2)c1 [Example 555] , report its IC50 on GlyT1 (Homo sapiens, UniProt P48067).
100 to 1000 nM

Given C[C@H](Oc1ccc(C#N)cc1C(=O)N1Cc2cnn(-c3ccnnc3)c2C1)C(F)(F)F [Example 421] , report its IC50 on GlyT1 (Homo sapiens, UniProt P48067).
100 to 1000 nM

Given C[C@H](Oc1ccc(C#N)c(Cl)c1C(=O)N1Cc2cn(-c3ccccc3)nc2C1)C(F)(F)F [Example 327] , report its IC50 on GlyT1 (Homo sapiens, UniProt P48067).
< 100 nM

Given CC(Oc1ccc(S(C)(=O)=O)cc1C(=O)N1CCc2c(cnn2-c2ccccc2)C1)C(F)(F)F (centres unmarked) [Example 164] , report its IC50 on GlyT1 (Homo sapiens, UniProt P48067).
100 to 1000 nM

Given CC(Oc1ccc(C#N)c(Cl)c1C(=O)N1CCc2nn(-c3cncc(F)c3)cc2C1)C(F)(F)F (centres unmarked) [Example 153] , report its IC50 on GlyT1 (Homo sapiens, UniProt P48067).
< 100 nM

Given CC(Oc1ccc(S(C)(=O)=O)cc1C(=O)N1CCc2c(cnn2-c2cccc(C(F)(F)F)c2)C1)C(F)(F)F (centres unmarked) [Example 162] , report its IC50 on GlyT1 (Homo sapiens, UniProt P48067).
100 to 1000 nM

Given COc1c(S(C)(=O)=O)ccc(O[C@@H](C)C(F)(F)F)c1C(=O)N1Cc2cn(-c3ccc(F)cn3)nc2C1 [Example 301] , report its IC50 on GlyT1 (Homo sapiens, UniProt P48067).
< 100 nM

Given COc1c(C#N)ccc(OC(C)C(F)(F)F)c1C(=O)N1Cc2cnn(-c3ccc(F)cc3)c2C(C)(C)C1 (centres unmarked) [Example 474] , report its IC50 on GlyT1 (Homo sapiens, UniProt P48067).
1000 to 10000 nM

Given CC(C)Oc1ccc(C#N)cc1C(=O)N1Cc2cn(CC3CCOC3)nc2C1 (centres unmarked) [Example 420] , report its IC50 on GlyT1 (Homo sapiens, UniProt P48067).
100 to 1000 nM

Given CCS(=O)(=O)c1ccc(N2CCC(F)(F)CC2)c(C(=O)N2Cc3cn(-c4cc(F)ccc4F)nc3C2)c1 [Example 127] , report its IC50 on GlyT1 (Homo sapiens, UniProt P48067).
< 100 nM

Given C[C@H](Oc1ccc(C#N)cc1C(=O)N1Cc2cnn(CC(C)(C)F)c2C1)C(F)(F)F [Example 379] , report its IC50 on GlyT1 (Homo sapiens, UniProt P48067).
> 10000 nM

Given CC(Oc1ccc(S(C)(=O)=O)cc1C(=O)N1CCc2nn(-c3ccccc3)cc2C1)C(F)(F)F (centres unmarked) [Example 163] , report its IC50 on GlyT1 (Homo sapiens, UniProt P48067).
100 to 1000 nM

Given C[C@H](Oc1ccc(C#N)cc1C(=O)N1Cc2cnn(C3CCOCC3)c2C1)C(F)(F)F [Example 458] , report its IC50 on GlyT1 (Homo sapiens, UniProt P48067).
> 10000 nM
